For each entry below, report its Ki value.
TESTED SYSTEM: Neprilysin (Homo sapiens, UniProt P08473)
Sequence (P08473 whole entry): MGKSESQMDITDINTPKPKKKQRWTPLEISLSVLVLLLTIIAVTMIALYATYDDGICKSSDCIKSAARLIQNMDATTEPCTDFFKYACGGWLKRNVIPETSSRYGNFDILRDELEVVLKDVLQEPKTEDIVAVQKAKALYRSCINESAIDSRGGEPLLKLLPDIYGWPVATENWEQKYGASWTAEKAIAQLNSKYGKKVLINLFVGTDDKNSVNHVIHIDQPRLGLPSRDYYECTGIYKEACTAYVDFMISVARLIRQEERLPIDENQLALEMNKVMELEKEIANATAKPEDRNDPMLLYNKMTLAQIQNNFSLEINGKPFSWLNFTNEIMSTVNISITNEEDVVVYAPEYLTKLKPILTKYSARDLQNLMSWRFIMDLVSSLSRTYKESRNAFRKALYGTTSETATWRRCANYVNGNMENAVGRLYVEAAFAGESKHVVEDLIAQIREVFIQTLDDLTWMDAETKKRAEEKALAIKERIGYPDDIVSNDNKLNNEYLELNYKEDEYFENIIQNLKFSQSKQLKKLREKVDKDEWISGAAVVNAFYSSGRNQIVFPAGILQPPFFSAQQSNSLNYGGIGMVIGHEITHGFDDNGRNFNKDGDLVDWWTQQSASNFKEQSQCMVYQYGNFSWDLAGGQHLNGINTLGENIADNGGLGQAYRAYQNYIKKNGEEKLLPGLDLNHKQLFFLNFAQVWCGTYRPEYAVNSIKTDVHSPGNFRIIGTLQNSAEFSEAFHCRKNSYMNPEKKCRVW
ASSAY DETAILS: Inhibition of human recombinant NEP by fluorescence assay
MEASUREMENT CONDITIONS: read-out: Ki app
The reply should contain only the number, in nM.

Prompt line: Which Ki value belongs to CC[C@@H](C)[C@H](S)C(=O)N[C@@H](Cc1ccc(OCc2ccc(C(F)(F)F)cc2)cc1)C(=O)O ?
Response line: 1500

Prompt line: Entry to check: CC[C@@H](C)[C@H](S)C(=O)N[C@@H](Cc1ccc(OCc2ccc(F)c(F)c2)cc1)C(=O)O
Response line: 640

Prompt line: Entry to check: CC[C@@H](C)[C@H](S)C(=O)N[C@@H](Cc1cccc2ccccc12)C(=O)O
Response line: 12

Prompt line: Entry to check: CC[C@@H](C)[C@H](S)C(=O)N[C@@H](C)C(=O)O
Response line: 950

Prompt line: Entry to check: CC[C@@H](C)[C@H](S)C(=O)N[C@@H](Cc1ccc(OCc2ccccc2)cc1)C(=O)O
Response line: 300

----------
TESTED SYSTEM: Neprilysin (Homo sapiens, UniProt P08473)
ASSAY DETAILS: Inhibition of human recombinant NEP by fluorescence assay
MEASUREMENT CONDITIONS: read-out: Ki app
pKi: −log10 of the molar value.
Decide by pKi: equal to or exceeding 7 means criterion met, less means criterion not met.

Prompt line: State whether the measured pKi reaches 7, counting equality as reaching it, for CC[C@@H](C)[C@H](S)C(=O)N[C@@H](Cc1ccccc1)C(=O)O
Response line: criterion met

Prompt line: Entry to check: CC[C@@H](C)[C@H](S)C(=O)N[C@@H](Cc1ccc(OCc2cc(C(F)(F)F)cc(C(F)(F)F)c2)cc1)C(=O)O
Response line: criterion not met

Prompt line: Entry to check: CC[C@@H](C)[C@H](S)C(=O)N[C@@H](Cc1ccccc1Oc1ccccc1)C(=O)O
Response line: criterion not met

Prompt line: Entry to check: CC[C@@H](C)[C@H](S)C(=O)N[C@@H](Cc1cccc(OCc2ccccc2)c1)C(=O)O
Response line: criterion met

Prompt line: Entry to check: CC[C@@H](C)[C@H](S)C(=O)N[C@@H](Cc1ccc(Oc2ccccc2)cc1)C(=O)O
Response line: criterion met

Prompt line: Entry to check: CC[C@@H](C)[C@H](S)C(=O)N[C@@H](Cc1ccc(OCc2ccc(F)cc2)cc1)C(=O)O
Response line: criterion not met

----------
For each entry below, report its Ki value.
TESTED SYSTEM: Angiotensin-converting enzyme (Homo sapiens, UniProt P12821)
Sequence (P12821 whole entry): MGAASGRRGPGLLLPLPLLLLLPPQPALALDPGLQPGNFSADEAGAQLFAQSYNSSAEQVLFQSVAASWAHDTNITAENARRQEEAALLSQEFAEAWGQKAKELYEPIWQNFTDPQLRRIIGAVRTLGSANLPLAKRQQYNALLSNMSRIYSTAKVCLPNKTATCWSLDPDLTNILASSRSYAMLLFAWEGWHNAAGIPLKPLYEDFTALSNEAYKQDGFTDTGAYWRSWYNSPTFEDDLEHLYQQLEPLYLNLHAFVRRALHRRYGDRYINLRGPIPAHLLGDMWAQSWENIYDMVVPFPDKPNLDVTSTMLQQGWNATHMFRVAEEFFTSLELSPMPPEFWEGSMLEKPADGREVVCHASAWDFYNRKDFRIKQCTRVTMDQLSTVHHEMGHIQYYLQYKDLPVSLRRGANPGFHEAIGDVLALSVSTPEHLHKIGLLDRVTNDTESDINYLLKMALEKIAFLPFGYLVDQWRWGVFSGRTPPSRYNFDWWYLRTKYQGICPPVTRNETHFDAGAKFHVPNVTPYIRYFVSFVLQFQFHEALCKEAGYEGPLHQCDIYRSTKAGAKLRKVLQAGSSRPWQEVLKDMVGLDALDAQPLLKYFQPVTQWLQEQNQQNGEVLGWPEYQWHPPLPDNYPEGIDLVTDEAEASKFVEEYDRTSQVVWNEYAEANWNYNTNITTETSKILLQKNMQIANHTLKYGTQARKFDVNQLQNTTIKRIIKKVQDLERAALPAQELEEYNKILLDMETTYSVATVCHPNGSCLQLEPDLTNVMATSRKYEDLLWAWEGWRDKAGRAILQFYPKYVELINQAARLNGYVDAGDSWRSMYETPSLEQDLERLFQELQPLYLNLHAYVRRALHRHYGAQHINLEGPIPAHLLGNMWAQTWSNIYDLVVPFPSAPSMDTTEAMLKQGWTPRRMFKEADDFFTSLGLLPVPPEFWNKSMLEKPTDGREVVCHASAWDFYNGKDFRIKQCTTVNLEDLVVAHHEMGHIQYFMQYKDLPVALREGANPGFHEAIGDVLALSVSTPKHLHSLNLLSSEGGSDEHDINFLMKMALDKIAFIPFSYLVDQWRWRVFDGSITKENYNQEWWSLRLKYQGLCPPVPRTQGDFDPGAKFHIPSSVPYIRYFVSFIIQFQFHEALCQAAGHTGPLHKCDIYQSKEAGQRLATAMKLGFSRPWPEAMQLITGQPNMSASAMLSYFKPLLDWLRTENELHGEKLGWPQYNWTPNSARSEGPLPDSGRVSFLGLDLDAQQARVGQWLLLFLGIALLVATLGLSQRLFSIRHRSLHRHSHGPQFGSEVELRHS
ASSAY DETAILS: Inhibition of human recombinant ACE by fluorescence assay
MEASUREMENT CONDITIONS: read-out: Ki app
The reply should contain only the number, in nM.

Prompt line: Which Ki value belongs to CC[C@@H](C)[C@H](S)C(=O)N[C@@H](Cc1ccc(O)cc1)C(=O)O ?
Response line: 410

Prompt line: Entry to check: CC[C@@H](C)[C@H](S)C(=O)N[C@@H](Cc1cccc(Oc2ccccc2)c1)C(=O)O
Response line: 1100

Prompt line: Entry to check: CC[C@@H](C)[C@H](S)C(=O)N[C@@H](Cc1ccc2ccccc2c1)C(=O)O
Response line: 310

Prompt line: Entry to check: CC[C@@H](C)[C@H](S)C(=O)N[C@@H](Cc1ccccc1Oc1ccccc1)C(=O)O
Response line: 5000

Prompt line: Entry to check: CC[C@@H](C)[C@H](S)C(=O)N[C@@H](Cc1ccc(OCc2ccc(F)cc2)cc1)C(=O)O
Response line: 4000

Prompt line: Entry to check: CC[C@@H](C)[C@H](S)C(=O)N[C@@H](C)C(=O)O
Response line: 180

Prompt line: Entry to check: CC[C@@H](C)[C@H](S)C(=O)N[C@@H](Cc1ccc(OCc2ccc(C(F)(F)F)cc2)cc1)C(=O)O
Response line: 2600

Prompt line: Entry to check: CC[C@@H](C)[C@H](S)C(=O)N[C@@H](Cc1cccc2ccccc12)C(=O)O
Response line: 1800

Prompt line: Entry to check: CC[C@@H](C)[C@H](S)C(=O)N[C@@H](Cc1cccc(OCc2ccccc2)c1)C(=O)O
Response line: 750

Prompt line: Entry to check: CC[C@@H](C)[C@H](S)C(=O)N[C@@H](Cc1ccccc1-c1ccccc1)C(=O)O
Response line: 20000

Prompt line: Entry to check: CC[C@@H](C)[C@H](S)C(=O)N[C@@H](Cc1ccccc1)C(=O)O
Response line: 570

Prompt line: Entry to check: CC[C@@H](C)[C@H](S)C(=O)N[C@@H](Cc1ccc(OCc2cc(C(F)(F)F)cc(C(F)(F)F)c2)cc1)C(=O)O
Response line: 25000

Prompt line: Entry to check: CC[C@@H](C)[C@H](S)C(=O)N[C@@H](Cc1ccccc1OCc1ccccc1)C(=O)O
Response line: 770

Prompt line: Entry to check: CC[C@@H](C)[C@H](S)C(=O)N[C@@H](Cc1ccc(Oc2ccccc2)cc1)C(=O)O
Response line: 250

Prompt line: Entry to check: CC[C@@H](C)[C@H](S)C(=O)N[C@@H](Cc1ccc(OCc2ccc(F)c(F)c2)cc1)C(=O)O
Response line: 1800

Prompt line: Entry to check: CC[C@@H](C)[C@H](S)C(=O)N[C@@H](Cc1ccc(OCc2ccccc2)cc1)C(=O)O
Response line: 570

Prompt line: Entry to check: CC[C@@H](C)[C@H](S)C(=O)N[C@@H](Cc1ccc(OCc2ccc(F)cc2F)cc1)C(=O)O
Response line: 950

Prompt line: Entry to check: CC[C@@H](C)[C@H](S)C(=O)N[C@@H](Cc1cccc(-c2ccccc2)c1)C(=O)O
Response line: 1000

Prompt line: Entry to check: CC[C@@H](C)[C@H](S)C(=O)NCC(=O)O
Response line: 250
